Test: Intrinsic clearance in rat liver microsomes
Format: ADME, Microsome
Details: read-out: CLH
assay_endpoint: microsomal CLint (µL/min/mg)

A: CC1(C)OC(=O)N(c2ccc(C(=O)Nc3cccc4cccnc34)cc2)[C@H]1c1ccccc1
B: O=C(Nc1cccc2cccnc12)c1ccc(N2CC(c3ccccc3)CC2=O)cc1 (racemic)
C: CC1(C)OC(=O)N([C@H]2CC[C@H](n3c(=O)[nH]c4cncnc43)CC2)[C@H]1c1ccccc1
D: CC1(C)OC(=O)N([C@H]2CC[C@H](n3c(=O)[nH]c4cc(C#N)c(F)cc43)CC2)[C@H]1c1ccccc1
Order by microsomal CLint, ascending. Put the labels in the requested order and write them down.
D, C, A, B
(D: 19 µL/min/mg, C: 43 µL/min/mg, A: 83 µL/min/mg, B: 297 µL/min/mg)

1: CC1(C)OC(=O)N([C@H]2CC[C@H](n3c(=O)[nH]c4ncccc43)CC2)[C@H]1c1ccccc1
2: O=C(Nc1cccc2cccnc12)c1ccc(N2C(=O)[C@@H]3[C@H](C2=O)[C@@H]2C=C[C@H]3C2)cc1
Please indicate which item has the smaller measured microsomal CLint: 1 versus 2 Refer to your chosen item by its label in the answer.
1
(1: 44 µL/min/mg, 2: 69 µL/min/mg)

###

Assay: Solubility of the compound in 0.01N HCl
Format: physicochemical
assay_endpoint: solubility (µg/mL)

CC1(C)OC(=O)N([C@H]2CC[C@H](C(=O)Nc3cccc4cccnc34)CC2)[C@H]1c1ccccc1 : 94

I: CC1(C)OC(=O)N(c2ccc(C(=O)Nc3cccc4cccnc34)cc2)[C@H]1c1ccccc1
II: CC1(C)OC(=O)N([C@H]2CC[C@H](n3c(=O)[nH]c4c(F)c(C#N)ccc43)CC2)[C@H]1c1ccccc1
Identify the entry with the larger solubility. Options: I and II State your choice using its label.
II

###

Assay: AUCt in CD-1 mouse at 30 mg/kg, po
Format: ADME, organism-based
Parameters: dose 30 mg/kg, route oral
Conditions: plasma
assay_endpoint: AUC(0-t) (µM·h)

CC1(C)OC(=O)N([C@H]2CC[C@H](n3c(=O)[nH]c4cc(C#N)c(F)cc43)CC2)[C@H]1c1ccccc1 : 89.8

1: CC1(C)OC(=O)N(c2ccc(C(=O)Nc3ccnc4cccnc34)cc2)[C@H]1c1ccccc1
2: CC1(C)OC(=O)N([C@H]2CC[C@H](n3c(=O)[nH]c4cnccc43)CC2)[C@H]1c1ccccc1
3: CC1(C)OC(=O)N([C@H]2CC[C@H](n3c(=O)[nH]c4c(F)c(C#N)ccc43)CC2)[C@H]1c1ccccc1
Arrange these 3 compounds in increasing order of AUC(0-t). Thanks in advance for listing the labels in the requested order.
1, 2, 3
(1: 0.17 µM·h, 2: 9.96 µM·h, 3: 101 µM·h)

###

Assay: Intrinsic clearance in human liver microsomes
Format: ADME, Microsome
Details: read-out: CLH
assay_endpoint: microsomal CLint (µL/min/mg)

Use these answered entries as a reference point.
CC1(C)OC(=O)N([C@H]2CC[C@H](NC(=O)c3ccnc4cccnc34)CC2)[C@H]1c1ccccc1 : 36
CC1(C)OC(=O)N([C@H]2CC[C@H](C(=O)Nc3cccc4cccnc34)CC2)[C@H]1c1ccccc1 : 25
CC1(C)OC(=O)N([C@H]2CC[C@H](NC(=O)c3ccnc4cc(F)cnc34)CC2)[C@H]1c1ccccc1 : 51

a: CC1(C)OC(=O)N(c2ccc(C(=O)Nc3cccc4cccnc34)cc2)[C@H]1c1ccccc1
b: O=C(Nc1cccc2cccnc12)c1ccc(N2C(=O)CCC2c2ccccc2)cc1 (racemic)
Quick one: lower microsomal CLint, a or b ? Choose, then provide that item's label.
a

###

Listed below: microsomal CLint values for each entry.
Assay: Intrinsic clearance in human liver microsomes
Type: ADME, Microsome
Conditions: read-out: CLH

Below: 2 compounds and their reported microsomal CLint.
CC1(C)OC(=O)N([C@H]2CC[C@H](n3c(=O)[nH]c4c(C#N)cccc43)CC2)[C@H]1c1ccccc1 : < 14 µL/min/mg
CC1(C)OC(=O)N([C@H]2CC[C@H](n3c(=O)[nH]c4cnccc43)CC2)[C@H]1c1ccccc1 : < 14 µL/min/mg

Then this compound:
Entry "CC1(C)OC(=O)N([C@H]2CC[C@H](n3c(=O)[nH]c4cc(C#N)ccc43)CC2)[C@H]1c1ccccc1" — recorded microsomal CLint = < 14 µL/min/mg

###

Assay: Intrinsic clearance in rat liver microsomes
Type: ADME, Microsome
Details: read-out: CLH
assay_endpoint: microsomal CLint (µL/min/mg)

Below: 5 compounds and their reported microsomal CLint.
CC1(C)OC(=O)N([C@H]2CC[C@H](NC(=O)c3cccc4cccnc34)CC2)[C@H]1c1ccccc1 : 52
CC1(C)OC(=O)N([C@H]2CC[C@H](n3c(=O)[nH]c4c(F)c(C#N)ccc43)CC2)[C@H]1c1ccccc1 : 45
CC1CCC(=O)N1c1ccc(C(=O)Nc2cccc3cccnc23)cc1 (racemic) : 163
CC1(C)OC(=O)N([C@H]2CC[C@H](NC(=O)c3ccnc4cc(F)cnc34)CC2)[C@H]1c1ccccc1 : 87
CC1(C)OC(=O)N([C@H]2CC[C@H](n3c(=O)[nH]c4cnccc43)CC2)[C@H]1c1ccccc1 : 50

P: O=C(Nc1cccc2cccnc12)c1ccc(N2C[C@H]3[C@@H](C2=O)[C@H]2C=C[C@@H]3C2)cc1 (racemic)
Q: CC1(C)OC(=O)N([C@H]2CC[C@H](n3c(=O)[nH]c4cc(C#N)cnc43)CC2)[C@H]1c1ccccc1
R: CC1(C)OC(=O)N(c2ccc(C(=O)Nc3ccnc4cccnc34)cc2)[C@H]1c1ccccc1
S: CC1(C)OC(=O)N([C@H]2CC[C@H](n3c(=O)[nH]c4cc(C#N)ccc43)CC2)[C@H]1c1ccccc1
Task field, ranking: reported microsomal CLint, descending order. The labels, placed in the requested order, form the answer.
P, Q, R, S
(P: 345 µL/min/mg, Q: 186 µL/min/mg, R: 61 µL/min/mg, S: 22 µL/min/mg)

###

Assay: Intrinsic clearance in rat liver microsomes
Type: ADME, Microsome
Settings: read-out: CLH
assay_endpoint: microsomal CLint

Answered examples (2):
O=C(Nc1cccc2cccnc12)c1ccc(N2C(=O)CC[C@H]2c2ccccc2)cc1 : > 399 µL/min/mg
O=C(Nc1cccc2cccnc12)c1ccc(N2C(=O)CCC2c2ccccc2F)cc1 (racemic) : > 399 µL/min/mg

Here is the next item to consider.
Reported microsomal CLint for O=C(Nc1cccc2cccnc12)c1ccc(N2C(=O)CCC2c2cccc(F)c2)cc1 (racemic) was > 399 µL/min/mg

Data origin, for the record: ChEMBL document CHEMBL2380263
